Origin of values: PubChem BioAssay

assay explanation: compound binding in COS7 lysate, probe aLAP1, primary screen, cell lysate, small-molecule microarray (AID 1124);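 also: lysate comes from COS7 cells expressing LAP1 and is applied at 0.3 µg/mL; score merges spot fluorescence near 667 nm with signal-to-noise over triplicate slides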
condition parameters: probe aLAP1, fluorescence, higher = more signal
param class (str): category from composite z-score; see ranges bucket A (below 0.04), bucket B (0.04 to below 0.4), bucket C (0.4 or more)

Field: example entries. Status: answers known.
compound | label value
Cc1ccc(S[C@]2(C(=O)O)CC(=O)N(Cc3ccccc3)[C@@H]2c2ccc(CO)cc2I)cc1 | bucket B
COCCCNC(=O)[C@]1(CCC(=O)OC(C)(C)C)N=C(c2ccc(OCCCO)cc2)O[C@@H]1c1ccccc1N=[N+]=[N-] | bucket A
O=C1[C@H]2[C@H]3[C@H](O)[C@H](O)CC(=NOC[C@@H](O)COCc4ccco4)[C@H]3CC[C@H]2C(=O)N1c1cccc(Oc2ccccc2)c1 | bucket B

# input Textbook exercise: identify the category of the compound given here, C=C(/C(=C/C[C@H](OC(=O)c1ccncc1)c1ccc(OCCO)cc1)c1cnc2ccccc2c1)C(C)C , according to its measured value.
# output bucket C

# input Textbook exercise: identify the category of the compound given here, CC(C)c1ccc(NN2C(C(O)c3ccc4c(c3)OCO4)C=CC3C(=O)N(c4ccccc4)C(=O)C32)cc1 (stereo unspecified) , according to its measured value.
# output bucket C

# input Textbook exercise: identify the category of the compound given here, CCOC(=O)NN=C1C[C@@H](O)[C@@H](O)[C@@H]2[C@@H]3C(=O)N(C4CCCCC4)C(=O)[C@@H]3CC[C@H]12 , according to its measured value.
# output bucket B

# input Textbook exercise: identify the category of the compound given here, CCOC(=O)[C@H](CC(C)C)NC(=O)CCC1CC(OC(=O)NCc2cccc3ccccc23)CC2(CCCC(COC(=O)NCCc3ccccc3OC)O2)O1 (stereo partly specified) , according to its measured value.
# output bucket B

# input Textbook exercise: identify the category of the compound given here, O=C1C2C=CC(C(O)c3ccc([N+](=O)[O-])cc3)N(Nc3ccc([N+](=O)[O-])cc3)C2C(=O)N1c1ccccc1 (stereo unspecified) , according to its measured value.
# output bucket C

# input Textbook exercise: identify the category of the compound given here, CCOC(=O)NN=C1C[C@@H](O)[C@@H](O)[C@@H]2[C@@H]3C(=O)N(CC)C(=O)[C@@H]3CC[C@@H]12 , according to its measured value.
# output bucket A

# input Textbook exercise: identify the category of the compound given here, CCCCCN1CC=CC23O[C@@H]4C=CCOC(=O)[C@@H]4[C@H]2C(=O)N(C(CO)C(C)C)[C@@H]3C1=O (stereo partly specified) , according to its measured value.
# output bucket C

# input Textbook exercise: identify the category of the compound given here, Cc1ccc(F)cc1S(=O)(=O)N[C@@H]1CCN(Cc2ccc(CC(C)C)cc2)C1 , according to its measured value.
# output bucket B

# input Textbook exercise: identify the category of the compound given here, COC(=O)C1(C)C=C2C(=C(c3ccccc3)C(=O)C2C)CN1 (stereo unspecified) , according to its measured value.
# output bucket A

# input Textbook exercise: identify the category of the compound given here, C[C@H](c1ccccc1)N1C(=O)[C@H]2[C@H]3[C@H](O)[C@H](O)CC(=O)[C@@H]3CC[C@H]2C1=O , according to its measured value.
# output bucket C

---

assay explanation: osmotic lysis modulators in infected erythrocytes, primary screen, PSAC antagonist project, cell-based, P. falciparum Indochina, OD700, 3 h (AID 1156)
condition parameters: higher = more signal, called active from +8 up or from −8 down
measured metric: z-score
Lab note: jot down the number only; don't add units.

compound | z-score
CC(=O)O[C@H]1C2=C(C(=O)[C@@H]3O[C@@H]31)[C@H]1C(C)O[C@@H]2[C@@]23C(=O)[C@@H]4O[C@@H]4[C@@H](O)C2=CO[C@H](C)[C@@H]13 (some centres not stated) | -0.0291
CC(=O)OC[C@H]1O[C@H](CC=NOC[C@@H](C)[C@H](OCc2ccccc2)C(C)C)C=C[C@@H]1OC(C)=O | 0.712
CCCC=C(CCC)[C@@H](NC(=O)c1ccc(-c2ccccc2)cc1)c1ccc(C(=O)OC)cc1 | -0.104
CC(=O)OC[C@H]1O[C@@H](ON=C(C)CCN2CCc3nc(-c4ccccc4)c(-c4ccccc4)cc3C2)[C@H](OC(C)=O)[C@@H](OC(C)=O)[C@@H]1OC(C)=O | 0.993
CC(C)(C)N1C(=O)[C@H]2[C@H]3[C@H](O)[C@H](O)CC(=NOCc4ccccc4)[C@@H]3CC[C@H]2C1=O | 0.877

# input Return value of z-score for input CCN1C(=O)[C@H]2[C@H]3[C@H](O)[C@H](O)CC(=NO[C@@H]4O[C@H](CO)[C@@H](O)[C@H](O)[C@H]4O)[C@@H]3CC[C@H]2C1=O , no commentary.
# output -0.846

# input Return value of z-score for input COc1ccc(O[C@H]2C=C[C@@H](c3ccccc3)O[C@@H]2COC(=O)CCC(C)=NOC[C@@H](C)[C@H](OCc2ccccc2)C(C)C)cc1 , no commentary.
# output 0.607
